system: Human immunodeficiency virus; assay: Inhibition of HIV reverse transcriptase at 100 ug/ml after 1 hr by ELISA relative to control
inhibition: recorded values
Reported property: inhibition (%)

* Cc1cccc(C)c1C1SCC(=O)N1NC(=O)c1ccncc1 (configuration not stated) | 14.2
* COc1cc(OC)nc(N2C(=O)CSC2c2c(Cl)cccc2[N+](=O)[O-])n1 (configuration not stated) | 79.4
* Cc1cc(N2C(=O)CSC2c2c(F)cccc2F)nc(C)c1Br (configuration not stated) | 81.8
* N#Cc1ccc(NN2C(=O)CSC2c2c(F)cccc2Cl)cc1 (configuration not stated) | 26.3
* N#Cc1ccc(N2C(=O)CSC2c2c(Cl)cccc2Cl)nc1 (configuration not stated) | 42
* Cc1cc(C)nc(N2C(=O)CSC2c2c(Cl)cccc2[N+](=O)[O-])c1 (configuration not stated) | 91.5
* O=C(NN1C(=O)CSC1c1c(Cl)cccc1Cl)c1ccncc1 (configuration not stated) | 18.9
* COc1cccc(OC)c1C1SCC(=O)N1c1cc(C)on1 (configuration not stated) | 62.2
* Cc1ccnc2c1NC(=O)c1cccnc1N2C1CC1 | 99.2
* COc1cccc(OC)c1C1SCC(=O)N1c1cc(C)c(Br)c(C)n1 (configuration not stated) | 85.5
* Cc1ccc(S(=O)(=O)NN2C(=O)CSC2c2c(F)cccc2Cl)cc1 (configuration not stated) | 56.3
* COc1cc(OC)nc(N2C(=O)CSC2c2ccc(C#N)cc2)n1 (configuration not stated) | 12.2
* COc1cc(OC)nc(N2C(=O)CSC2c2c(F)cccc2Cl)n1 (configuration not stated) | 95.4
* O=C(NN1C(=O)CSC1c1c(F)cccc1Cl)c1ccncc1 (configuration not stated) | 81.7
* Cc1ccnc(N2C(=O)CSC2c2ccc(C#N)cc2)n1 (configuration not stated) | 43.5
* Cc1ccc(S(=O)(=O)NN2C(=O)CSC2c2c(Cl)cccc2Cl)cc1 (configuration not stated) | 57.9
* Cc1cc(C)nc(N2C(=O)CSC2c2ccc(C#N)cc2)c1 (configuration not stated) | 37.9
* Cc1cc(N2C(=O)CSC2c2ccc(C#N)cc2)nc(C)c1Br (configuration not stated) | 37.5
* Cc1cc(N2C(=O)CSC2c2c(Cl)cccc2[N+](=O)[O-])nc(C)c1Br (configuration not stated) | 77.8
* N#Cc1ccc(C2SCC(=O)N2c2ccc(C#N)cn2)cc1 (configuration not stated) | 30.4
* COc1cc(OC)nc(N2C(=O)CSC2c2c(Cl)cccc2Cl)n1 (configuration not stated) | 76.8
* O=C1CSC(c2c(Cl)cccc2Cl)N1c1ncnc2[nH]cnc12 (configuration not stated) | 50.2
* COc1cc(OC)nc(N2C(=O)CSC2c2c(OC)cccc2OC)n1 (configuration not stated) | 93.8
* O=C1CSC(c2c(Cl)cccc2Cl)N1Nc1ccccn1 (configuration not stated) | 97.4
* N#Cc1ccc(NN2C(=O)CSC2c2c(Cl)cccc2Cl)cc1 (configuration not stated) | 22.2
* Cc1cc(C)nc(N2C(=O)CSC2c2ccc(C#N)cc2)n1 (configuration not stated) | 41.5
* O=C1CSC(c2c(F)cccc2F)N1c1ncnc2[nH]cnc12 (configuration not stated) | 70.4
* Cc1cc(N2C(=O)CSC2c2ccc(C#N)cc2)no1 (configuration not stated) | 27.6
* COc1cc(OC)nc(N2C(=O)CSC2c2c(F)cccc2F)n1 (configuration not stated) | 82.9
* N#Cc1ccc(NN2C(=O)CSC2c2c(F)cccc2F)cc1 (configuration not stated) | 34.5
* O=C1CSC(c2c(F)cccc2F)N1Nc1ccccn1 (configuration not stated) | 64.7
* O=C1CSC(c2c(F)cccc2Cl)N1Nc1ccccn1 (configuration not stated) | 97.5

---

experiment: Selectivity index, ratio of CC50 for human TZM-bl cells to EC50 for X4 tropic Human immunodeficiency virus 1 3B subtype B; format: toxicity, cell-based; conditions: read-out: Ratio CC50/EC50
Reported property: selectivity ratio

• Cc1cc(N2C(=O)CSC2c2c(F)cccc2F)nc(C)c1Br (stereo unspecified) = 192
• Cc1cccc(C)c1C1SCC(=O)N1NC(=O)c1ccncc1 (stereo unspecified) = 1.47
• Cc1cc(C)nc(N2C(=O)CSC2c2c(Cl)cccc2[N+](=O)[O-])c1 (stereo unspecified) = 6940
• Cc1ccnc(N2C(=O)CSC2c2ccc(C#N)cc2)n1 (stereo unspecified) = 1.41
• COc1cc(OC)nc(N2C(=O)CSC2c2c(F)cccc2Cl)n1 (stereo unspecified) = 545
• COc1cc(OC)nc(N2C(=O)CSC2c2c(Cl)cccc2Cl)n1 (stereo unspecified) = 1220

---

assay: Selectivity index, ratio of CC50 for human TZM-bl cells to EC50 for X4 tropic Human immunodeficiency virus 1 3B subtype B; format: toxicity, cell-based; settings: read-out: Ratio CC50/EC50
Response field class: enum, chosen by comparing selectivity ratio against b0 = under 3, b1 = from 3 up to 40, b2 = 40 and over

* COc1cc(OC)nc(N2C(=O)CSC2c2c(Cl)cccc2[N+](=O)[O-])n1 (stereo unspecified) | b2
* N#Cc1ccc(NN2C(=O)CSC2c2c(F)cccc2Cl)cc1 (stereo unspecified) | b0
* N#Cc1ccc(NN2C(=O)CSC2c2c(F)cccc2F)cc1 (stereo unspecified) | b0
* Cc1ccc(S(=O)(=O)NN2C(=O)CSC2c2c(Cl)cccc2Cl)cc1 (stereo unspecified) | b0
* COc1cc(OC)nc(N2C(=O)CSC2c2c(F)cccc2F)n1 (stereo unspecified) | b2
* Cc1cc(C)nc(N2C(=O)CSC2c2ccc(C#N)cc2)c1 (stereo unspecified) | b1
* O=C1CSC(c2c(Cl)cccc2Cl)N1c1ncnc2[nH]cnc12 (stereo unspecified) | b0
* O=C(NN1C(=O)CSC1c1c(Cl)cccc1Cl)c1ccncc1 (stereo unspecified) | b1
* COc1cc(OC)nc(N2C(=O)CSC2c2c(OC)cccc2OC)n1 (stereo unspecified) | b2
* O=C1CSC(c2c(F)cccc2F)N1Nc1ccccn1 (stereo unspecified) | b1
* COc1cccc(OC)c1C1SCC(=O)N1c1cc(C)c(Br)c(C)n1 (stereo unspecified) | b1

---

assay: Selectivity index, ratio of CC50 for human TZM-bl cells to EC50 for R5 tropic Human immunodeficiency virus 1 VB59 subtype C; type: toxicity, cell-based; conditions: read-out: Ratio CC50/EC50
Class label 1: selectivity ratio at least 30. Class label 0: selectivity ratio below 30.

- COc1cc(OC)nc(N2C(=O)CSC2c2c(Cl)cccc2[N+](=O)[O-])n1 (centres undefined): label 1
- N#Cc1ccc(C2SCC(=O)N2c2ccc(C#N)cn2)cc1 (centres undefined): label 0
- O=C1CSC(c2c(F)cccc2F)N1Nc1ccccn1 (centres undefined): label 0
- O=C(NN1C(=O)CSC1c1c(Cl)cccc1Cl)c1ccncc1 (centres undefined): label 0
- COc1cccc(OC)c1C1SCC(=O)N1c1cc(C)c(Br)c(C)n1 (centres undefined): label 1
- N#Cc1ccc(N2C(=O)CSC2c2c(Cl)cccc2Cl)nc1 (centres undefined): label 0
- Cc1ccc(S(=O)(=O)NN2C(=O)CSC2c2c(F)cccc2Cl)cc1 (centres undefined): label 0
- Cc1ccnc2c1NC(=O)c1cccnc1N2C1CC1: label 1
- O=C1CSC(c2c(F)cccc2Cl)N1Nc1ccccn1 (centres undefined): label 0
- COc1cc(OC)nc(N2C(=O)CSC2c2c(Cl)cccc2Cl)n1 (centres undefined): label 1
- Cc1cc(N2C(=O)CSC2c2c(F)cccc2F)nc(C)c1Br (centres undefined): label 1
- COc1cccc(OC)c1C1SCC(=O)N1c1cc(C)on1 (centres undefined): label 0
- O=C1CSC(c2c(Cl)cccc2Cl)N1Nc1ccccn1 (centres undefined): label 1
- Cc1cc(N2C(=O)CSC2c2ccc(C#N)cc2)no1 (centres undefined): label 0
- COc1cc(OC)nc(N2C(=O)CSC2c2c(F)cccc2F)n1 (centres undefined): label 1
- O=C1CSC(c2c(F)cccc2F)N1c1ncnc2[nH]cnc12 (centres undefined): label 0
- N#Cc1ccc(C2SCC(=O)N2c2ccc(C#N)cc2)cc1 (centres undefined): label 0
- Cc1cc(C)nc(N2C(=O)CSC2c2ccc(C#N)cc2)c1 (centres undefined): label 0
- Cc1cc(C)nc(N2C(=O)CSC2c2c(Cl)cccc2[N+](=O)[O-])c1 (centres undefined): label 1
- N#Cc1ccc(NN2C(=O)CSC2c2c(Cl)cccc2Cl)cc1 (centres undefined): label 0
- COc1cc(OC)nc(N2C(=O)CSC2c2c(OC)cccc2OC)n1 (centres undefined): label 0
- N#Cc1ccc(NN2C(=O)CSC2c2c(F)cccc2Cl)cc1 (centres undefined): label 0
- COc1cc(OC)nc(N2C(=O)CSC2c2c(F)cccc2Cl)n1 (centres undefined): label 1
- N#Cc1ccc(NN2C(=O)CSC2c2c(F)cccc2F)cc1 (centres undefined): label 0

---

log10(CC50 at 48 h): recorded values
experiment: Cytotoxicity against human TZM-bl cells after 48 hrs by MTT assay; assay type: cell-based
Reported property: log10(CC50 at 48 h) (log10 of the value in µM)

- O=C1CSC(c2c(F)cccc2F)N1Nc1ccccn1 (stereo unspecified): 1.95
- N#Cc1ccc(NN2C(=O)CSC2c2c(Cl)cccc2Cl)cc1 (stereo unspecified): 1.81
- COc1cc(OC)nc(N2C(=O)CSC2c2c(Cl)cccc2Cl)n1 (stereo unspecified): 1.93
- COc1cc(OC)nc(N2C(=O)CSC2c2ccc(C#N)cc2)n1 (stereo unspecified): 1.94
- N#Cc1ccc(N2C(=O)CSC2c2c(Cl)cccc2Cl)nc1 (stereo unspecified): 1.78
- Cc1cc(C)nc(N2C(=O)CSC2c2ccc(C#N)cc2)c1 (stereo unspecified): 2.17
- Cc1ccnc2c1NC(=O)c1cccnc1N2C1CC1: 1.88
- O=C(NN1C(=O)CSC1c1c(Cl)cccc1Cl)c1ccncc1 (stereo unspecified): 2.23
- COc1cccc(OC)c1C1SCC(=O)N1c1cc(C)c(Br)c(C)n1 (stereo unspecified): 1.93
- Cc1cc(C)nc(N2C(=O)CSC2c2c(Cl)cccc2[N+](=O)[O-])c1 (stereo unspecified): 2.14
- Cc1cc(C)nc(N2C(=O)CSC2c2ccc(C#N)cc2)n1 (stereo unspecified): 2.05
- O=C1CSC(c2c(F)cccc2Cl)N1Nc1ccccn1 (stereo unspecified): 2.18
- O=C1CSC(c2c(F)cccc2F)N1c1ncnc2[nH]cnc12 (stereo unspecified): 1.61
- Cc1ccc(S(=O)(=O)NN2C(=O)CSC2c2c(F)cccc2Cl)cc1 (stereo unspecified): 2.13
- COc1cc(OC)nc(N2C(=O)CSC2c2c(F)cccc2F)n1 (stereo unspecified): 1.89
- O=C1CSC(c2c(Cl)cccc2Cl)N1c1ncnc2[nH]cnc12 (stereo unspecified): 1.12
- O=C(NN1C(=O)CSC1c1c(F)cccc1Cl)c1ccncc1 (stereo unspecified): 2.02
- N#Cc1ccc(C2SCC(=O)N2c2ccc(C#N)cn2)cc1 (stereo unspecified): 2.11
- COc1cc(OC)nc(N2C(=O)CSC2c2c(F)cccc2Cl)n1 (stereo unspecified): 1.99
- N#Cc1ccc(NN2C(=O)CSC2c2c(F)cccc2F)cc1 (stereo unspecified): 1.63
- Cc1cc(N2C(=O)CSC2c2c(F)cccc2F)nc(C)c1Br (stereo unspecified): 1.83
